# System: BT-20 breast cancer cells
# PROTOCOL DESCRIPTION: MTT cytotoxicity assay
# Type: cell-based, human
# TEST SETTINGS: BT20, 48 hours; read-out: IC50 (inhibition of cellular proliferation, MTT)
REPORTED METRIC: pIC50
Scale note: pIC50 = -log10(concentration in M).

## Input Enter reported pIC50 observed with BT-20 breast cancer cells for CC(=O)C=C(C)[O-].O=S(=O)([O-])C(F)(F)F.[V+4].c1cc[cH-]c1.c1cc[cH-]c1 [VDacac, Vanadocene acetylacetonato monotriflate]
## Output 4.57
